A set of molecules tested on JAK2 (Homo sapiens (Human), UniProt O60674), with measured Ki:

Examples with their reported Ki follow.
[
  {
    "MOLECULE": "CCNC(=O)c1ccn(-c2cc(-c3c(F)cccc3F)nc3c2C(=O)NC3)n1",
    "Ki": "100 to 1000 nM"
  },
  {
    "MOLECULE": "CC1(O)CN(c2ccn(-c3cc(-c4c(F)cccc4C#N)nc4c3C(=O)NC4)n2)CC[C@H]1O (stereo partly shown)",
    "Ki": "0.1 to 10 nM"
  }
]

Query: Give the observed Ki of CN1CCN(c2ccn(-c3cc(-c4c(F)cccc4F)nc4c3C(=O)NC4)n2)CC1 for JAK2 (Homo sapiens (Human), UniProt O60674).
Reply: 100 to 1000 nM

Query: Give the observed Ki of CC1=C(c2ccn(-c3cc(-c4c(F)cccc4C#N)nc4c3C(=O)NC4)n2)CNC1=O for JAK2 (Homo sapiens (Human), UniProt O60674).
Reply: 10 to 100 nM

Query: Give the observed Ki of N#Cc1cccc(F)c1-c1cc(-n2ccc(N3CCC(N4CCOCC4)CC3)n2)c2c(n1)CNC2=O for JAK2 (Homo sapiens (Human), UniProt O60674).
Reply: 0.1 to 10 nM

Query: Give the observed Ki of N#Cc1cccc(F)c1-c1cc(-n2ccc(N3CCC[C@](O)(C(F)(F)F)C3)n2)c2c(n1)CNC2=O for JAK2 (Homo sapiens (Human), UniProt O60674).
Reply: 10 to 100 nM

Query: Give the observed Ki of CC(C)n1cc(-c2cc(-c3c(F)cccc3C#N)nc3c2C(=O)NC3)cn1 for JAK2 (Homo sapiens (Human), UniProt O60674).
Reply: 10 to 100 nM

Query: Give the observed Ki of N#Cc1cccc(F)c1-c1cc(-n2ccc(N3CC[C@H](C#N)[C@@H](O)C3)n2)c2c(n1)CNC2=O [I-215] for JAK2 (Homo sapiens (Human), UniProt O60674).
Reply: 10 to 100 nM

Query: Give the observed Ki of CC1(C#N)CCCN(c2ccn(-c3cc(-c4c(F)cccc4C#N)nc4c3C(=O)NC4)n2)C1 (stereo not shown) for JAK2 (Homo sapiens (Human), UniProt O60674).
Reply: 0.1 to 10 nM

Query: Give the observed Ki of C[C@@H]1CC(O)C[C@H](C)N1c1ccn(-c2cc(-c3c(F)cccc3C#N)nc3c2C(=O)NC3)n1 (stereo partly shown) for JAK2 (Homo sapiens (Human), UniProt O60674).
Reply: 100 to 1000 nM

Query: Give the observed Ki of CN1CCN(C2CCCN(c3ccn(-c4cc(-c5c(F)cccc5C#N)nc5c4C(=O)NC5)n3)C2)CC1 (stereo not shown) for JAK2 (Homo sapiens (Human), UniProt O60674).
Reply: 10 to 100 nM

Query: Give the observed Ki of CCNC(=O)[C@@H]1CCCN(c2ccn(-c3cc(-c4c(F)cccc4C#N)nc4c3C(=O)NC4)n2)C1 for JAK2 (Homo sapiens (Human), UniProt O60674).
Reply: 10 to 100 nM

Query: Give the observed Ki of N#Cc1cccc(F)c1-c1cc(-n2ccc(N3CCC4(C3)OCC(O)CO4)n2)c2c(n1)CNC2=O (stereo not shown) for JAK2 (Homo sapiens (Human), UniProt O60674).
Reply: 0.1 to 10 nM
